test system: CCRF-CEM leukemia; assay: NCI tumour cell line growth inhibition, 48 h
parameter: GI50

# lookup: GI50 of "COc1ccc(C(=O)NNc2nc(Cl)nc(N3CCN(C(c4ccccc4)c4ccccc4)CC3)n2)cc1"
1.25 µM

Also need "Cc1c2cc(Cl)c3ccccc3c2c[n+]2ccccc12" , thanks.
3.36 µM

Also need "CN(C)c1nc2ccccc2c2c1c1c(n2Cc2ccccc2)-c2ccccc2C1=O" , thanks.
62.7 µM

----------
I'd appreciate it if you could supply TGI values for the items below.
tested on: MCF7 breast; assay: NCI tumour cell line growth inhibition, 48 h

# lookup: TGI of CN(Cc1cnc2nc(N)nc(N)c2n1)c1ccc(C(=O)NC(CO)CCCO)cc1 (stereo not given)
> 100 µM

Also need "c1ccc(/C(=N/Nc2ccncn2)c2ccccn2)cc1" , thanks.
> 100 µM

Also need COc1ccc(C(=O)CC(c2ccccc2)[C@H]2C(c3ccc(OC)cc3)=Nc3c(nc(SC)n(C)c3=O)NC2c2ccccc2)cc1 (stereo not given in full) , thanks.
> 100 µM

Also need "C=C(C)[C@H]1C2=CC(C)=C(O2)[C@@H](O[C@@H]2c3oc(cc3C)[C@H](C(=C)C)[C@H]3C=C(CC[C@H]2C(=C)C)C(=O)O3)[C@H](C(=C)C)CCC2=C[C@H]1OC2=O" , thanks.
> 100 µM

Also need "CC1(C)CC2(CC(C)(C)N1O)NC(=O)OC2=O" , thanks.
> 100 µM

----------
test system: MDA-MB-435; experiment: NCI tumour cell line growth inhibition, 48 h
I'd appreciate it if you could supply TGI values for the items below.
Kindly answer with a numeric value in µM, unit omitted.

# lookup: TGI of "CN(C)CCCNc1ccc2nnn3c4ccc(O)cc4c(=O)c1c23"
20.9

Also need "C=CC[n+]1c2ccccc2n2cc([N+](=O)[O-])ccc21" , thanks.
89.2

----------
tested on: KM12 colon; assay: NCI tumour cell line growth inhibition, 48 h
parameter: TGI

# lookup: TGI of "COC[C@@H](N=Cc1ccc([N+](=O)[O-])cc1)C(C)C"
> 100 µM

Also need "CC(C)(C)OC(=O)NCCCn1c2c(c3ccccc3c1=O)C(=O)c1ccccc1-2" , thanks.
> 100 µM

Also need C=C1CCC2(C#N)[C@H]3[C@H](CC[C@@H]2C)[C@@H](C)C[C@@H](CC(C)(C)NC(=O)CN2CCC2=O)[C@H]13 (some centres undefined) , thanks.
15 µM

Also need "C#Cc1nc2ccccc2c(=O)[nH]1" , thanks.
2.94 µM

Also need COC(=O)c1c2c(cc3c1CC1(Cc4cc5c(c(C(C)=O)c4C1)CCC5)C3)CCC2 (centres undefined) , thanks.
> 100 µM

Also need "C1=C2CCCC3=Cc4ccccc4OC23Oc2ccccc21" , thanks.
56.7 µM

Also need "Cc1ccc(S(=O)(=O)Nc2nnc(S(N)(=O)=O)s2)cc1" , thanks.
> 100 µM

Also need "NCc1cccc(O)c1O" , thanks.
> 100 µM

Also need "O=C1OC[C@H]2[C@@H]1[C@H]1O[C@@H]2C2=C(CCC2)C1=O" , thanks.
> 100 µM

----------
system: M14 melanoma; assay: NCI tumour cell line growth inhibition, 48 h
I'd appreciate it if you could supply TGI values for the items below.

# lookup: TGI of "O=C(Nn1c(-c2ccccc2)nc2ccccc2c1=O)c1ccccc1O"
> 100 µM

Also need "COc1cccc(N=N/C(=N\NC(=O)c2ccc(C)cc2)c2ccc(N(CCC#N)CCC#N)cc2C)c1" , thanks.
> 100 µM

Also need CCCC(=O)N[C@H]1C2C3CC4C5CC(C42)C1(C)C53 (stereo partly drawn) , thanks.
> 100 µM
